Experiment: 1-octanol/water partition coefficient (logPow) of the matrix by the high-performance liquid chromatography method, OECD Test Guideline 117
Assay type: physicochemical
Details: HPLC method of OECD Test Guideline 117; matrix for MALDI mass spectrometry
MEASUREMENT_NAME: chromatographic logP

> print(dat)
                                   compound  readout.value
1  N#CC(=Cc1ccc(O)cc1)C(=O)O [α-cyano-4-hydroxycinnamic acid]            0.9
